B1: glmS ribozyme (parent)
chain: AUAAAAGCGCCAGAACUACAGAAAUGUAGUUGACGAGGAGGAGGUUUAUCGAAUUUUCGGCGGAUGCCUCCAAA

- Variants of: B1
- Test Description: self-cleavage kobs at 640 uM GlcN6P; higher = faster cleavage; RNA array
- Conditions: with glucosamine-6-phosphate
Fewer inactive variants are shown than the library holds.
Give Yes when the value for self-cleavage kobs at 640 uM GlcN6P is at least 0.0005 s⁻¹. Give No when it is less.

INSERT INTO results (sequence_record, answer_label) VALUES
  ('AUAAAAGCGCCAGAACUACAGAAAUGUAGUUAACGAGGAGGAGGUUUAUCGAAUUUUCGGCGGGUGCCUCCAAA [G32A A64G]', 'No'),
  ('AUAAAAGCGCCAGAACUACAGAAAUGUAGUUAACUAGCCGGAGGUUUAGCGAAUUUUCGGCGGAUGCCUCCAAA [G32A G35U G38C A39C U49G]', 'No'),
  ('AUAAAAGCGCCUGAACUACAGAAAUGUAGUUGACGAGGAGGAGGUUUAUCGAAUUUUCGGCGGAUGACUCCAAA [A12U C67A]', 'Yes');

In: Check the entry AUAAAAGCGCCAGAACUACAGAAAUGUAGUUGACGAGGAGGAGGUUUAUCGAAUUUUCGGCGGGUACCUCCAAA [A64G G66A] : does self-cleavage kobs at 640 uM GlcN6P equal or exceed 0.0005 s⁻¹?
Out: Yes

In: Check the entry AUAAAAGCGCCAGAAAUACAGAAAUGUAGUUGACGAGGAGGAGGUUUAUCGAACUUUCGGCGGAUGCCUCCAAA [C16A U54C] : does self-cleavage kobs at 640 uM GlcN6P equal or exceed 0.0005 s⁻¹?
Out: Yes

In: Check the entry AUAAAAGCGCCAGAACUACAGAAAUGUAGUUGACGAGGAGGAGGUUUACCGAAUCUUCGGCGGAUGCCUCCAAA [U49C U55C] : does self-cleavage kobs at 640 uM GlcN6P equal or exceed 0.0005 s⁻¹?
Out: No

In: Check the entry AUAAAAUCGCCAGAACUAAAGAAAUGUAGUUGACGAGGAGGAGGUUUAUCGAAUUUUCGGCGGAUGCCUCCAAA [G7U C19A] : does self-cleavage kobs at 640 uM GlcN6P equal or exceed 0.0005 s⁻¹?
Out: No

In: Check the entry AUAAAAGCGCCAGAACUACAGAAAUGUAGUCGACGAGGUGGAGGUUUAUCGAAUUUUCGGCGGAUGCCUCCAAA [U31C A39U] : does self-cleavage kobs at 640 uM GlcN6P equal or exceed 0.0005 s⁻¹?
Out: Yes

In: Check the entry AUAAAAGCGCCACAACUACAGAAAUGUAUUUGACGAGGAGUAGGUUUAUCGAAUUUUCGGCGGAUGCAUACAAA [G13C G29U G41U C68A C70A] : does self-cleavage kobs at 640 uM GlcN6P equal or exceed 0.0005 s⁻¹?
Out: No

In: Check the entry AUAAAAGCUACAGAACUACAGAAAUGUAGUUGACGAGGAGGUGGUUUAUCAAAGUUUCGCCGGAUGCCUCCAAA [G9U C10A A42U G51A U54G G60C] : does self-cleavage kobs at 640 uM GlcN6P equal or exceed 0.0005 s⁻¹?
Out: No
